study_target: Gonadotropin-releasing hormone receptor (Rattus norvegicus, UniProt P30969)
Sequence (P30969 whole entry): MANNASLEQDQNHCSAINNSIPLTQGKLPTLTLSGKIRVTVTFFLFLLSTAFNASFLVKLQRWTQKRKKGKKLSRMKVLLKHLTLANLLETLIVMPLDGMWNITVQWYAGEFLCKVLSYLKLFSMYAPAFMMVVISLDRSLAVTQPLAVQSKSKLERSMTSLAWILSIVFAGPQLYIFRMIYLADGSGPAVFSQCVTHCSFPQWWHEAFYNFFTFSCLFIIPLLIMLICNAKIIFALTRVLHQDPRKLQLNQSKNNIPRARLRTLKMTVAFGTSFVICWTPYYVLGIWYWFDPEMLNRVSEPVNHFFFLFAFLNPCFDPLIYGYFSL
protocol: Inhibition of [125I]buserelin to GnRH receptor in rat pituitary membranes.
pIC50: −log10 of the molar value.
outcome_measure: pIC50

molecule="Cc1cc(C)cc(-c2c(OCCC3CCCCN3C)c3ccc(C(F)(F)F)cc3[nH]c2=O)c1 (configuration not stated)" outcome_measure=pIC50 experimental_result=7.00

[A] CN1CCCCC(Oc2c(-c3ccccc3)c(O)nc3cc(Cl)ccc23)C1 (configuration not stated)
[B] Cc1cc(C)cc(-c2c(O)nc3cc(Cl)ccc3c2OCC2CCCCN(C)C2)c1 (configuration not stated)
Exercise: Pick one: A or B . Which has the bigger pIC50 number? Choose, then provide that item's label.
Key: B

[P] Cc1cc(C)cc(-c2c(O)nc3cc([N+](=O)[O-])ccc3c2OCC2CCCN(C)C2)c1 (configuration not stated)
[Q] Cc1cc(C)cc(-c2c(O)nc3cc(Cl)ccc3c2OCC2CCN(C)C2)c1 (configuration not stated)
Exercise: Pick one: P or Q . Which has the bigger pIC50 number? Choose, then provide that item's label.
Key: Q

[I] Cc1cc(C)cc(-c2c(OCCC3CCCCN3C)c3ccc(Br)cc3[nH]c2=O)c1 (configuration not stated)
[II] Cc1cc(C)cc(-c2c(O)nc3cc(Cl)ccc3c2OCC2CN(C)CCO2)c1 (configuration not stated)
[III] Cc1cc(C)cc(-c2c(O)nc3cc(Cl)ccc3c2OC2CCCN(C)CC2)c1 (configuration not stated)
Exercise: Parameters: sort_field (pIC50), sort_dir (desc). // ordering of labels required in reply
Key: I, III, II
(I: 6.82, III: 6.52, II: 5.85)

[A] Cc1cc(C)cc(-c2c(OCCC3CCCCN3C)c3cc([N+](=O)[O-])c(Cl)cc3[nH]c2=O)c1 (configuration not stated)
[B] Cc1cc(C)cc(-c2c(O)nc3cc(Cl)ccc3c2OCC(C)CN(C)C)c1 (configuration not stated)
[C] CN1CCCC(COc2c(-c3ccccc3)c(O)nc3cc(Cl)ccc23)C1 (configuration not stated)
[D] Oc1nc2cc(Cl)ccc2c(OCc2ccccn2)c1-c1ccccc1
[E] Cc1cc(C)cc(-c2c(OCC3CCCN(C)C3)c3ccc(Cl)cc3[nH]c2=O)c1 (configuration not stated)
Exercise: Parameters: sort_field (pIC50), sort_dir (desc). // ordering of labels required in reply
Key: A, E, C, B, D

====

study_target: Gonadotropin-releasing hormone receptor (Rattus norvegicus, UniProt P30969)
protocol: Inhibition of [125I]buserelin to GnRH receptor in rat pituitary membranes.
outcome_measure: IC50 (µM)

Record excerpt, results attached:
compound="Cc1cc(C)cc(-c2c(O)nc3cc(Cl)ccc3c2OCC2CCCNC2)c1 (centres undefined)" experimental_result=0.5
compound=Cc1cc(C)cc(-c2c(OCCCN3CCCCC3)c3ccc(Cl)cc3[nH]c2=O)c1 experimental_result=7.5
compound="Cc1cc(C)cc(-c2c(O)nc3cc(Cl)ccc3c2OCCC2CCCN2C)c1 (centres undefined)" experimental_result=0.2
compound="Cc1cc(C)cc(-c2c(OCC3CCCN(C)C3)c3ccc(C)cc3[nH]c2=O)c1 (centres undefined)" experimental_result=3.9
compound="CN1CCCCC1COc1c(-c2ccccc2)c(=O)[nH]c2cc(Cl)ccc12 (centres undefined)" experimental_result=9

[A] CN(C)CCCOc1c(-c2ccccc2)c(O)nc2cc(Cl)ccc12
[B] Cc1cc(C)cc(-c2c(OC3CCN(C)CC3)c3ccc(Cl)cc3[nH]c2=O)c1
[C] Cc1cc(C)cc(-c2c(O)nc3cc(Cl)ccc3c2OCC2CCCCN2C)c1 (centres undefined)
[D] Cc1cc(C)cc(-c2c(OCCC3CCCCN3C)c3ccc(Cl)cc3[nH]c2=O)c1 (centres undefined)
Exercise: Parameters: sort_field (IC50), sort_dir (desc). // ordering of labels required in reply
Key: A, C, B, D
